The following variants are shown together with reported yeast fitness values.
B1: tRNA (parent)
chain: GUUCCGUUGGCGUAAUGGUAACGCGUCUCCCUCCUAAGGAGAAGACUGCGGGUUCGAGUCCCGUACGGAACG

variants of: B1; test: yeast fitness relative to wild type (ratio to wild type); higher = fitter; tRNA-Arg(CCU), competitive growth, 37 C, YPD
Fewer inactive variants are shown than the library holds.

C22A C24G U32C C34U    ≤ 0.5
C4A A15G G17A    0.724
A14G C30U G39A C60G    ≤ 0.5

Moving on to the next variant.
INPUT: Which measured yeast fitness value corresponds to U8A G12A C33U A65U ?
OUTPUT: 0.562
